measured-target: Full-length glucokinase (beta cell isoform) (Homo sapiens)
Construct: Full-length glucokinase (beta cell isoform) was His-tagged at N-terminus; His tag (N); made in house
Sequence (P35557 1-465): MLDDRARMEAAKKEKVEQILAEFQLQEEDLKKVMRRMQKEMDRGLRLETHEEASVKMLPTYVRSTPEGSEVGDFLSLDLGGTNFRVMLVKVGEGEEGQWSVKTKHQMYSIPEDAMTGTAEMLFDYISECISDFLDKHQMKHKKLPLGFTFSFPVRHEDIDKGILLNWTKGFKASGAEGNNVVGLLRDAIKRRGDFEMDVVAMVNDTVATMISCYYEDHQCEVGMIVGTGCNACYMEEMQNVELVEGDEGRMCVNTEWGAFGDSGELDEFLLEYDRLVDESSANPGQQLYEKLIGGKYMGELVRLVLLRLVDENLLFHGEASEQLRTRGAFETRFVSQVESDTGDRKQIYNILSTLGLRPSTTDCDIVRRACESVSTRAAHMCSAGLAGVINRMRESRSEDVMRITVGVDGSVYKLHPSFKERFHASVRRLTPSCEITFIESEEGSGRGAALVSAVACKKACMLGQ
test-method-notes: Glucokinase biochemical assay (PK/LDH-coupled, NADH depletion at 340 nm): % activation, EC50, % max activation
experimental-setup: 5 mM glucose; fitted maximum activation; read-out: % Max Activation
parameter: Emax (%)
Answers are plain numbers, in %.

Worked examples follow.
[[record]]
molecule = "Cn1ncc(NC(=O)c2cc(Oc3ccc(S(=O)(=O)C4CC4)cc3)c3c(c2)OC(C)(CO)C3)n1 (centres unmarked)"
parameter = "Emax"
meas_value = 261

[[record]]
molecule = "COc1cnc(NC(=O)c2cc(Oc3ccc(S(C)(=O)=O)cc3)c3cc(C(=O)N(C)C)oc3c2)cn1"
parameter = "Emax"
meas_value = 169

[[record]]
molecule = "Cc1cc2c(Oc3ccc(S(=O)(=O)N4CCC4)cc3)cc(C(=O)Nc3cnn(C)n3)cc2o1"
parameter = "Emax"
meas_value = 132

[[record]]
molecule = "Cc1cc2c(Oc3ccc(S(=O)(=O)N4CCC4)cc3)cc(C(=O)Nc3ccc(CO)cn3)cc2o1"
parameter = "Emax"
meas_value = 137

[[record]]
molecule = "COCC1Cc2c(Oc3ccc(S(C)(=O)=O)cc3)cc(C(=O)Nc3ccn(C)n3)cc2O1 (centres unmarked)"
parameter = "Emax"
meas_value = 137

[[record]]
molecule = "COCc1nnc(NC(=O)c2cc(Oc3ccc(S(C)(=O)=O)cc3)c3c(c2)OC(C)(C)C3)s1"
parameter = "Emax"
meas_value = 183

[[record]]
molecule = "Cc1cc2cc(C(=O)Nc3ccn(C)n3)cc(Oc3ccc(S(C)(=O)=O)cc3)c2o1"
parameter = "Emax"
meas_value = 147


// next item, Emax requested
Would you kindly share the measured Emax for CCS(=O)(=O)c1ccc(Oc2cc(C(=O)Nc3ccc(C)cn3)cc3c2CC(C)(C)O3)cc1 ?
118
